test system: Salmonella; assay type: cell-based, S. typhimurium; conditions: pH 7.2
pIC50: −log10 of the molar value. Ends that are not written are not given here.
assay.endpoint: pIC50

QRAVARAATRVARTGRARWRDVARNFMRR [Peptide G8.5]
6.38
GRSRWRDVCRNFMRR [Peptide G14, GRSRWRDVCRNFMRR, reference compound]
6.05
QRAVARAATRVARTGRARW [Peptide G13.6, QRAVARAATRVARTGRARW]
5.13
QRSVSRAATRVSRTGRSRW [Peptide G13.2, QRSVSRAATRVSRTGRSRW]
5.14
RDVSRRFMRRRDVSRRFMRR [Peptide G11.39]
5.77
RDVSRRFMRRGSRDVSRRFMRRGSRDVSRRFMRR [Peptide G11.26]
6.68
GRSRWRDVSRNFMRR [Peptide G14.1, GRSRWRDVSRNFMRR]
5.76
